Just for reference, the supplement of paper PMC12137928 is where these values come from.

Test system: HCT116
assay-text: efficacy (maximum % inhibition of viability vs DMSO); higher = more cytotoxic
condition-notes: 72 h; ICRF193 0 nM
Counter-ions that a name gives are not always drawn.
observed-property: efficacy (%)
Please state the figure in %; there is no need to write the unit.

- COC(=O)N[C@H](C(=O)N1CCC[C@H]1c1ncc(-c2ccc(-c3ccc(-c4cnc([C@@H]5CCCN5C(=O)[C@@H](NC(=O)OC)C(C)C)[nH]4)cc3)cc2)[nH]1)C(C)C [Daclatasvir dihydrochloride]: 103

Ask: Reported efficacy, compound CC1(C)C(/C=C/C=C/C=C/C=C2\N(CCCCS(=O)(=O)O)c3ccc4ccccc4c3C2(C)C)=[N+](CCCCS(=O)(=O)[O-])c2ccc3ccccc3c21 : ____
Result: 43.6

====

Measured efficacy, listed per entry.
Test system: HCT116
assay-text: efficacy (maximum % inhibition of viability vs DMSO); higher = more cytotoxic
condition-notes: 72 h; ICRF193 200 nM
Where a name gives a salt, the structure may show the parent alone.
Please state the figure in %; there is no need to write the unit.

Ask: GET /values?readout=efficacy&system=HCT116&item= CC(=O)[O][Hg][c]1ccccc1 [Phenylmercuric acetate]
Result: 97.9

Ask: What do we get for C#C[C@]1(OC(C)=O)CC[C@H]2[C@@H]3CCC4=C[C@@H](OC(C)=O)CC[C@@H]4[C@H]3CC[C@@]21C [Ethynodiol diacetate] ?
Result: 47.1

Ask: What do we get for CC[C@@]1(O)C(=O)OCc2c1cc1n(c2=O)Cc2cc3c(CN(C)C)c(O)ccc3nc2-1 [Topotecan hydrochloride] ?
Result: 102

Ask: What do we get for Cc1ccc([N+](=O)[O-])[c]2c1[O][Hg]2 [Nitromersol] ?
Result: 91.5

====

Measured IC50 cell viability, listed per entry.
Tested on: HCT116
condition-notes: 72 h; ICRF193 0 nM
Counter-ions that a name gives are not always drawn.

• COc1cc(NS(=O)(=O)c2ccc(N)cc2)ncn1 = > 45.8 µM
• O[C@@H](CNC[C@H](O)[C@H]1CCc2cc(F)ccc2O1)[C@@H]1CCc2cc(F)ccc2O1 (racemic) [rac Nebivolol hydrochloride] = 29.1 µM
• COc1cc([C@@H]2c3cc4c(cc3[C@@H](O[C@@H]3O[C@@H]5CO[C@@H](C)O[C@H]5[C@H](O)[C@H]3O)[C@H]3COC(=O)[C@H]23)OCO4)cc(OC)c1O [Etoposide] = 29.1 µM
• Cc1cc(=O)oc2cc(O)ccc12 = > 45.8 µM
• CO[C@H]1C[C@@H]2CC[C@@H](C)[C@@](O)(O2)C(=O)C(=O)N2CCCC[C@H]2C(=O)O[C@H]([C@H](C)C[C@@H]2CC[C@@H](OCCO)[C@H](OC)C2)CC(=O)[C@H](C)/C=C(\C)[C@@H](O)[C@@H](OC)C(=O)[C@H](C)C[C@H](C)/C=C/C=C/C=C/1C = > 45.8 µM

Next:
Ask: Reported IC50 cell viability, compound CC=CC(=O)N(CC)c1ccccc1C : ____
Result: > 45.8 µM

====

Tested on: HCT116
condition-notes: 72 h; ICRF193 200 nM
Structures can show the parent of a compound that is named as a salt.
observed-property: IC50 cell viability

Solved cases (3 shown):
- CC(C)(C)c1ccc(CN2CCN(C(c3ccccc3)c3ccc(Cl)cc3)CC2)cc1 (centres undefined) [Buclizine HCl]: 20.6 µM
- NC(=O)c1ccc([N+](=O)[O-])cc1Cl [2-Chloro-4-nitrobenzamide]: > 45.8 µM
- O=C(O)Cc1ccccc1Nc1c(Cl)cccc1Cl [Diclofenac sodium]: > 45.8 µM

Ask: Reported IC50 cell viability, compound C[C@H]1C[C@H]2[C@@H]3CCC4=CC(=O)C=C[C@]4(C)[C@@]3(Cl)[C@@H](O)C[C@]2(C)[C@@]1(O)C(=O)CO : ____
Result: 20.6 µM

Ask: What do we get for CCOc1ccc2c(c1)C(C)=CC(C)(C)N2 ?
Result: > 45.8 µM

Ask: What do we get for CC(C(=O)O)c1ccc(C(=O)c2ccccc2)s1 (centres undefined) ?
Result: > 45.8 µM

Ask: What do we get for COc1cccc2c1C(=O)c1c(O)c3c(c(O)c1C2=O)C[C@@](O)(C(=O)CO)C[C@@H]3O[C@H]1C[C@H](N)[C@H](O[C@@H]2CCCCO2)[C@H](C)O1 ?
Result: 6.51 µM

Ask: What do we get for O=c1[nH]c(=O)c2[nH]c(O)nc2[nH]1 [Sodium urate] ?
Result: > 45.8 µM

Ask: What do we get for CCOC(=O)c1ccc(O)cc1 ?
Result: > 45.8 µM

Ask: What do we get for O=C(Nc1ccc(Cl)cc1)Nc1ccc(Cl)c(Cl)c1 ?
Result: 13 µM

Ask: What do we get for CCCN(CCC)C(=O)C(CCC(=O)OCCCN1CCN(CCOC(=O)Cc2c(C)n(C(=O)c3ccc(Cl)cc3)c3ccc(OC)cc23)CC1)NC(=O)c1ccccc1 (centres undefined) ?
Result: 20.6 µM

Ask: What do we get for CCN(CC)C(=O)C1(c2ccccc2)CC1CN (centres undefined) [Milnacipran hydrochloride] ?
Result: > 45.8 µM

Ask: What do we get for NCCNCCNCCNCCN ?
Result: > 45.8 µM

Ask: What do we get for CN(CCCN1c2ccccc2CCc2ccccc21)CC(=O)c1ccc(Cl)cc1 [Lofepramine hydrochloride] ?
Result: > 45.8 µM

Ask: What do we get for CCCCNc1ccc(C(=O)OCCN(CC)CC)cc1 ?
Result: > 45.8 µM

Ask: What do we get for C[N+]1(C)[C@@H]2C[C@@H](OC(=O)C(O)(c3cccs3)c3cccs3)C[C@H]1[C@@H]1O[C@@H]12 [Tiotropium (Bromide)] ?
Result: > 45.8 µM

Ask: What do we get for C[Se]CC[C@H](N)C(=O)O ?
Result: > 45.8 µM

Ask: What do we get for Cc1ccc(/N=C/N(C)/C=N/c2ccc(C)cc2C)c(C)c1 ?
Result: > 45.8 µM

Ask: What do we get for O=c1cc[nH]c(=O)[nH]1 ?
Result: > 45.8 µM
